The measurements presented in this section are drawn from ChEMBL document CHEMBL4715772.

Test system: Mycobacterium tuberculosis
Test: Antimycobacterial activity against Mycobacterium tuberculosis H37Rv assessed as inhibition of bacterial growth by microdilution alamar blue broth assay
Type: functional, organism-based
measurement-type: IC90 (µM)
The figure you give is taken to be in µM; do not add the unit.

IN: Which value of IC90 has been reported for COc1ccc([C@@H]2CN(C)C3(C(=O)c4ccccc4C3=O)[C@]23CSc2ccccc2C3=O)cc1 in the records?
OUT: 36.5

IN: Also, Cc1ccc([C@@H]2CN(C)C3(C(=O)c4ccccc4C3=O)[C@]23CSc2ccccc2C3=O)cc1 please.
OUT: 66.5

IN: Also, CN1C[C@@H](c2ccccc2)[C@@]2(CSc3ccccc3C2=O)C12C(=O)c1ccccc1C2=O please.
OUT: 27.9
